Give phosphorylation enrichment for every item shown.
target: Jak2 (UniProt O60674); test: phosphorylation enrichment, bacterial display (enrichment ratio); higher = better substrate or ligand; peptides without Tyr show the background;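 further: 11-residue human phosphosite peptides and single-mutation variants displayed on the E. coli surface, counted by deep sequencing, each peptide's frequency after selection divided by its frequency in the unselected input library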;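 further: frequency after pTyr selection over input frequency; kinase dosed for 20-30% of maximal phosphorylation in three min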
Sequence (O60674 whole entry, looked up): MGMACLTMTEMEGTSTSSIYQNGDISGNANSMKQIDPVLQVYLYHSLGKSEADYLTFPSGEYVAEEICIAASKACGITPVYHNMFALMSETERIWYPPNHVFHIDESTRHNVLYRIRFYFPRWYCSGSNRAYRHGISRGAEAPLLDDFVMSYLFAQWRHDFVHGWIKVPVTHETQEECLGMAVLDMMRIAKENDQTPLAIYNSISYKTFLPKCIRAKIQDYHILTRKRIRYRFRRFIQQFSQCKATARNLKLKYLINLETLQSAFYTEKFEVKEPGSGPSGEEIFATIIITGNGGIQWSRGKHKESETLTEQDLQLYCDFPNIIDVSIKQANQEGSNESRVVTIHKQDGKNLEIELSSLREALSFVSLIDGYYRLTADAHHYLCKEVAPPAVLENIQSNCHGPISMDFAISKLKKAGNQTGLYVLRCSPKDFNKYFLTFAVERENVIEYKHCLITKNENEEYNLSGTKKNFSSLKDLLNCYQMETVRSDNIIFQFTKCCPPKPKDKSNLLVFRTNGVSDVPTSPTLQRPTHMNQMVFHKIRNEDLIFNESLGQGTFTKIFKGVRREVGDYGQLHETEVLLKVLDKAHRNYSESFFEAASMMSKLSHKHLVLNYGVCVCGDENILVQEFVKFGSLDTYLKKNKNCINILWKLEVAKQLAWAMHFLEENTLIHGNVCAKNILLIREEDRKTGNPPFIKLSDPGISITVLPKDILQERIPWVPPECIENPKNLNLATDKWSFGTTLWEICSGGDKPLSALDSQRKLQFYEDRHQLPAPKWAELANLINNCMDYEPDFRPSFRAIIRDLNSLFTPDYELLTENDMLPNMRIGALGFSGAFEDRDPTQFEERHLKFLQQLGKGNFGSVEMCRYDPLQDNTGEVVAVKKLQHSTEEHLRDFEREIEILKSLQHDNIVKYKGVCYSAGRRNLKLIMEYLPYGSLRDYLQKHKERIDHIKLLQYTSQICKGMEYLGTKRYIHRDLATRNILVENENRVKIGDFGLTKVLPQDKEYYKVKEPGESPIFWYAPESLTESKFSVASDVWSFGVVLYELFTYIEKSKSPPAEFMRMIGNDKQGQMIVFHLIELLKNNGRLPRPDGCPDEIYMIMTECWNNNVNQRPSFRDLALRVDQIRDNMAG
Give bare numbers.

[
  {
    "sequence content": "CHKRTYKVTGL",
    "phosphorylation enrichment": 0.657
  },
  {
    "sequence content": "VPLATYMRIFK [RPL21_Y30_YF]",
    "phosphorylation enrichment": 0.614
  },
  {
    "sequence content": "ANNEFYFRVCA",
    "phosphorylation enrichment": 1.39
  },
  {
    "sequence content": "QRIYQYIRSRF [DYRK1B_Y273_Q275R]",
    "phosphorylation enrichment": 0.817
  },
  {
    "sequence content": "VDEVLYEDSST [MTHFS_Y197]",
    "phosphorylation enrichment": 1.18
  },
  {
    "sequence content": "EMFNPYYGLFE [NEDD4L_Y679]",
    "phosphorylation enrichment": 6.66
  },
  {
    "sequence content": "MPQNEYIELHC [NSA2_Y6_R11C]",
    "phosphorylation enrichment": 0.939
  },
  {
    "sequence content": "TIMTDYNPNYC [ALK_Y1092]",
    "phosphorylation enrichment": 1.24
  }
]

For every item in the list below, what is its measured phosphorylation enrichment?
1. LSQDVYEEDSY [RET_Y900_R897Q]
2. VSTAVYKRFAS [BEST1_Y148_P152A]
3. SGLDSYVRSLP [TRAPPC1_Y133_R129G]
4. GGPAGYLRRAS [PKLR_Y38]

Given back:
1: 1.76; 2: 0.725; 3: 0.443; 4: 0.529

For every item in the list below, what is its measured phosphorylation enrichment?
1. VHKKGYNKLNQ [ZNF676_Y98_E96K]
2. LYDPDYMKVIL [CYP4A22_Y104]
3. ASLEAYCKHKF [RXRA_Y403_YF]
4. STEAIYWRFSK [SH3PXD2B_Y42_R43W_YF]
5. YVGGFYGGCNE [CTSC_Y352]
6. VDDEIYYFRKP [PBRM1_Y1289]
7. DQIDTYELSGA [DNM1_Y354_G359A]
8. KFDLMYAKWAF [TUBA3E_Y399]

Given back:
1: 0.569; 2: 2.27; 3: 0.697; 4: 1.29; 5: 1.06; 6: 1.35; 7: 1.03; 8: 1

For every item in the list below, what is its measured phosphorylation enrichment?
1. RLLVVYHWTQR [HBD_Y36_P37H]
2. ESAAIYNPVIF [RHO_Y301_K296E_YF]
3. LDLPGYCLLRE [CCDC116_Y291_P293L]
4. EICTQYEAMAS [GFAP_Y242_R239C]
5. YSMGCYEIYLG [HMGCL_Y198_S201Y]
6. LEKISYVYMKR [SSX7_Y48]
7. ENFSEYQEIAV [HEMGN_Y150]

Given back:
1. 1.17
2. 0.707
3. 2.21
4. 0.777
5. 1.41
6. 1.37
7. 1.28

For every item in the list below, what is its measured phosphorylation enrichment?
1. DCLASYLDKVR [KRT10_Y160_R156C]
2. RHCSGYVLIAM [EFR3A_Y73_R70C]

Given back:
1: 0.842; 2: 0.846

For every item in the list below, what is its measured phosphorylation enrichment?
1. KYVKMYDNHQL [MYO9A_Y203]
2. KKHIPYKEHKS [CSNK1G1_Y205_R206K]
3. TVINKYQGKLF [HGD_Y249]
4. VDEERYDIEAK [TNNI3_Y112]
5. LNWIYYKDQTG [RS1_Y166]

Given back:
[0.51, 3.96, 0.545, 1.12, 2.21]

For every item in the list below, what is its measured phosphorylation enrichment?
1. AGQEKYSAMRD [HRAS_Y64_E63K]
2. NIEPVYLNMLL [ATR_Y317]
3. EERNPYYSSAR [MCCC2_Y520_G517R]

Given back:
1: 0.618; 2: 1.36; 3: 0.923

For every item in the list below, what is its measured phosphorylation enrichment?
1. RKEAQYMLENE [SLC16A6_Y224]
2. QTPVLYAMLDH [MPZ_Y220]
3. SKAYAYVHFDS [PABPC5_Y149_G146A]
4. TRDVNYGWTIR [MT-CYB_Y75_I78T]
5. KFRREYILSLE [GPC3_Y299_W296R_YF]
6. PLLEFYWDIFT [CDAN1_Y713_R714W_YF]

Given back:
1: 1.22; 2: 0.845; 3: 1.05; 4: 0.834; 5: 0.61; 6: 1.17

For every item in the list below, what is its measured phosphorylation enrichment?
1. PEFVVYKPQME [CCRL2_Y170]
2. QNTGGYFDLFG [PTPN11_Y62_D61G_YF]
3. FLNSIYKSRDE [ROS1_Y2227]
4. IFCIQYNIRAF [MYH4_Y820]

Given back:
1: 1.82; 2: 1.26; 3: 0.612; 4: 1.57

* * *

molecular target: Hck (UniProt P08631); experiment: phosphorylation enrichment, bacterial display (enrichment ratio); higher = better substrate or ligand; peptides without Tyr show the background
Sequence (P08631 whole entry, looked up): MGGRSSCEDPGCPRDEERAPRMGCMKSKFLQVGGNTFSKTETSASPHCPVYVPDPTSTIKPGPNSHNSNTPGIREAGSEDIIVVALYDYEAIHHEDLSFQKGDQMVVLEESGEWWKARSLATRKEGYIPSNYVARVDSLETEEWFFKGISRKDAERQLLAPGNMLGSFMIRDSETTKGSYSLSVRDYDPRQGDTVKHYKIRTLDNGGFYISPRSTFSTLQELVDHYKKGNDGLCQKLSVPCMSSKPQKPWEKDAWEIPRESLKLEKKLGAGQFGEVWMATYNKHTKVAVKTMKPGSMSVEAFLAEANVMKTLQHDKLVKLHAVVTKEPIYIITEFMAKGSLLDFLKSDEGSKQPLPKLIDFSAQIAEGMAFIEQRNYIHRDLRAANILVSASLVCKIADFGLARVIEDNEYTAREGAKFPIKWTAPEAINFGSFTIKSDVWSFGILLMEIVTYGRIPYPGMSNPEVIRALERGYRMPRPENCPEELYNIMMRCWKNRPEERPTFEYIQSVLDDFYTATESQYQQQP
Give phosphorylation enrichment for every item shown.
Numbers only.

Here's what some known entries look like.
[
  {
    "sequence content": "RGNMFYENSFA [EGFR_Y113_YF]",
    "phosphorylation enrichment": 0.479
  },
  {
    "sequence content": "ETKKQYNSFTF [TMED3_Y85_D86N_YF]",
    "phosphorylation enrichment": 0.417
  },
  {
    "sequence content": "IPGMEYLVSII [TNC_Y1775_V1773M]",
    "phosphorylation enrichment": 0.522
  },
  {
    "sequence content": "FQQLFYLLQTN [IQGAP2_Y890_YF]",
    "phosphorylation enrichment": 0.688
  },
  {
    "sequence content": "GRQGIYTKNER [GPR143_Y231_E233K]",
    "phosphorylation enrichment": 0.327
  },
  {
    "sequence content": "GPQGVYSNKLV [PTPN14_Y506]",
    "phosphorylation enrichment": 0.588
  },
  {
    "sequence content": "TRFDEYLEVTK [MAP1A_Y2217_H2214Y_YF]",
    "phosphorylation enrichment": 0.619
  },
  {
    "sequence content": "DRLASYPEKVR [KRT13_Y118_L119P]",
    "phosphorylation enrichment": 0.329
  },
  {
    "sequence content": "AVLSLYASGCT [ACTA2_Y145_R149C]",
    "phosphorylation enrichment": 0.634
  },
  {
    "sequence content": "IHYPPYTDWNQ [ALDH3B2_Y365]",
    "phosphorylation enrichment": 0.655
  }
]

For every item in the list below, what is its measured phosphorylation enrichment?
1. VKKKLDEEIDQ [CYP17A1_Y329_Y329D]
2. NIEPVYLNMLL [ATR_Y317]
3. LAVNPYGPPDL
4. KYVKMYDNHQL [MYO9A_Y203]

Given back:
1. 0.488
2. 5.48
3. 0.682
4. 0.489

* * *

biological target: Fes (UniProt P07332); test: phosphorylation enrichment, bacterial display (enrichment ratio); higher = better substrate or ligand; peptides without Tyr show the background
Sequence (P07332 whole entry, looked up): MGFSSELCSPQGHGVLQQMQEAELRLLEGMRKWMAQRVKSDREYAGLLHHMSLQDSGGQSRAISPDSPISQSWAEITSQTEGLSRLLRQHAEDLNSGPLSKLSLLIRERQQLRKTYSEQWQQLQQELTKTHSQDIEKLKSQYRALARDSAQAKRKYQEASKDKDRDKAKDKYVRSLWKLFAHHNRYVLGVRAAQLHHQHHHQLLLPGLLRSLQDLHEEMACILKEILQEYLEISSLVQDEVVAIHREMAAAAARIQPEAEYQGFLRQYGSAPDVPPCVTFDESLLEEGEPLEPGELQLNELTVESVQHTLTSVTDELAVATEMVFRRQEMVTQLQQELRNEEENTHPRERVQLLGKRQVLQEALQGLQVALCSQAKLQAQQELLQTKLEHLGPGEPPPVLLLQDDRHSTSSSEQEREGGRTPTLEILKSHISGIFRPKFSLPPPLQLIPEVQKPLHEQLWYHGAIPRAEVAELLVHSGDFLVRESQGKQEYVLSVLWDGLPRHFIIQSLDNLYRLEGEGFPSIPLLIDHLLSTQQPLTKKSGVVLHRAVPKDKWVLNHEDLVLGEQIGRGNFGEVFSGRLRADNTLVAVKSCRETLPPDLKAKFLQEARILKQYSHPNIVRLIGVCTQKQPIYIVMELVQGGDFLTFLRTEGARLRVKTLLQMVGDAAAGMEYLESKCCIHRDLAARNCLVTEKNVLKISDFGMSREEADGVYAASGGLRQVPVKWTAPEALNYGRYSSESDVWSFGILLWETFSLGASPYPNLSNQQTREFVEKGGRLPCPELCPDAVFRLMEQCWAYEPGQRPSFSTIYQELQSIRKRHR
experimental endpoint: phosphorylation enrichment

For every item in the list below, what is its measured phosphorylation enrichment?
1. AAVDTYCRHNF [HLA-DRB1_Y107_YF]
2. FLAVGYHKTHI [IDS_Y225_P228T]
3. KSDVMYTDWKK [ORM1_Y175_V174M]
4. SWVVPYEPPEV [TP53_Y220_V216W]
5. TSSGGYRRTPS [ABI1_Y333]
6. VTSLKYSTPPF [BRIP1_Y916_S919P_YF]
7. FSGKAYADEEQ [CRIM1_Y826_R831Q]

Given back:
1: 1.04; 2: 0.946; 3: 0.842; 4: 1.23; 5: 0.499; 6: 0.841; 7: 1.14

* * *

molecular target: Fyn (UniProt P06241); test: phosphorylation enrichment, bacterial display (enrichment ratio); higher = better substrate or ligand; peptides without Tyr show the background
Sequence (P06241 whole entry, looked up): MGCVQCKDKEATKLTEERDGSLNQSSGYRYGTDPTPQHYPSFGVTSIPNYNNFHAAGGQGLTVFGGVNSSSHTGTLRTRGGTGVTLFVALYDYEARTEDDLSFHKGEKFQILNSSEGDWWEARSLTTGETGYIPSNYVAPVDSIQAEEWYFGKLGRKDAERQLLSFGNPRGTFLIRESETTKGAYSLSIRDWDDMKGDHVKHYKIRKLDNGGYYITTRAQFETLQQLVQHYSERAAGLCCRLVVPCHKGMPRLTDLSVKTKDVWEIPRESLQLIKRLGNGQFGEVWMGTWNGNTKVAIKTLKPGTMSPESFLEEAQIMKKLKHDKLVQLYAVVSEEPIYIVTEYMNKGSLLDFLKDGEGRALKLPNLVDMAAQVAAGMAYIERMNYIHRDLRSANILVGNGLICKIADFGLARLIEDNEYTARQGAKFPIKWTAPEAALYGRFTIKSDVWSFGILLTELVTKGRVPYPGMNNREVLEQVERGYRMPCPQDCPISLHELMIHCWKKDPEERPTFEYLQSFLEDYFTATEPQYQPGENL
Classes (phosphorylation enrichment): bottom: < 0.5; middle: ≥ 0.5 and < 0.9; top: ≥ 0.9

[
  {
    "sequence content": "GIVEDYRPPVF [ACVRL1_Y421_F425V_YF]",
    "target of assay": "Fyn (UniProt P06241)",
    "class label": "bottom"
  },
  {
    "sequence content": "EVVGGYSVHNA [MLH1_Y183_R182G]",
    "target of assay": "Fyn (UniProt P06241)",
    "class label": "bottom"
  },
  {
    "sequence content": "PARLEYCENEK [IRS1_Y46_Y47C]",
    "target of assay": "Fyn (UniProt P06241)",
    "class label": "top"
  },
  {
    "sequence content": "QGIYGYHHYMQ [UFSP2_Y287]",
    "target of assay": "Fyn (UniProt P06241)",
    "class label": "top"
  },
  {
    "sequence content": "FPCSVYVPDEW [INSR_Y1011]",
    "target of assay": "Fyn (UniProt P06241)",
    "class label": "middle"
  }
]

Asked: Assign a bin to GLAKEYTDPET [CSNK1G2_Y195_I196T]
Given back: middle

Asked: Assign a bin to `ANNEYYFQVCA`
Given back: middle
